This collection of values is drawn from PubChem BioAssay (EPA / NIEHS).

ASSAY SUMMARY: CCTE_Simmons_CellTiterGLO_HEK293T: Viability Assessment in CCTE's Assays for Thyroperoxidase (TPO) Inhibition, Simmons Lab (AID 2283665);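 on AC50: cells exposed to compound for 24 h before readout; actives reduce ATP signal below DMSO vehicle meaning cytotoxicity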
Records with an inconclusive call do not appear. Activity calls are given as the source filed them. How the source made its calls: active means hit-call score of the fitted dose curve at least 0.9, where 1 is the maximum; inconclusive means response in the unintended direction; inactive means score below 0.9.
MEASURE: AC50

In the examples that follow, each entry is paired with its recorded AC50.
[
  {
    "MOLECULE": "CC(C)=CC1C(C(=O)OCc2coc(Cc3ccccc3)c2)C1(C)C (stereo not drawn)",
    "MEASURE": "AC50",
    "RESULT": "32.7 µM (active)"
  },
  {
    "MOLECULE": "COC(=O)NC(=S)Nc1ccccc1NC(=S)NC(=O)OC",
    "MEASURE": "AC50",
    "RESULT": "inactive"
  },
  {
    "MOLECULE": "COP(=S)(OC)Oc1ccc([N+](=O)[O-])c(C)c1",
    "MEASURE": "AC50",
    "RESULT": "inactive"
  },
  {
    "MOLECULE": "COc1ccc(-c2ccccc2)cc1NNC(=O)OC(C)C",
    "MEASURE": "AC50",
    "RESULT": "42.4 µM (active)"
  }
]

Could you now look at the following molecule, please?
Ask: Find the recorded AC50 belonging to `CCOc1nc(F)cc2nc(S(=O)(=O)Nc3c(Cl)cccc3Cl)nn12` and report it.
Reply: inactive

* * *

STUDY TARGET: Estrogen receptor (Homo sapiens) (UniProt P03372)
Sequence (P03372 whole entry, looked up): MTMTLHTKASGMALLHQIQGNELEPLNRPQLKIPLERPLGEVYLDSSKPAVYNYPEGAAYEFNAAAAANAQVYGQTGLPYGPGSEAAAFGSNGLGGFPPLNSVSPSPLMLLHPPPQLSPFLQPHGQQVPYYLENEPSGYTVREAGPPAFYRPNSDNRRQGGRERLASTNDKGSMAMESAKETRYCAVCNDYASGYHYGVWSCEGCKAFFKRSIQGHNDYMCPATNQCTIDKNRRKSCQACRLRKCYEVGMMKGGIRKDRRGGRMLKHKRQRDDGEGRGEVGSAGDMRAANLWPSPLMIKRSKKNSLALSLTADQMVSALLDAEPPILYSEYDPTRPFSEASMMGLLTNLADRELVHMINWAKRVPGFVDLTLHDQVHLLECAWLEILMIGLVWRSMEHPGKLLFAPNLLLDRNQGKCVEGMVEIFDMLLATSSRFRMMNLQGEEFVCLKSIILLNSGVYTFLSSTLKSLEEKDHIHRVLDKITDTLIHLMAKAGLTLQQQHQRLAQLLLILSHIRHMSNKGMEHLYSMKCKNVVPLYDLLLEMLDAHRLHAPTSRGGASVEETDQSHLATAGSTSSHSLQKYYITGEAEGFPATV
ASSAY SUMMARY: OT_ER_ERaERa_1440: Odyssey Thera (OT) 24-hour HEK293T Protein-Complementation Assay for Estrogen Receptor-alpha/-alpha Homodimer (AID 2283349);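 further: hits raise fluorescence above DMSO for agonists and antagonists alike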
The source made the active and inactive calls. Rule for the calls: active = hit-call score of the fitted dose curve at least 0.9, where 1 is the maximum; inconclusive = response in the unintended direction; inactive = score below 0.9.
Outcome (select one): 1 (yes) = active, 0 (no) = inactive

# example entries with known answers
[
  {
    "COMPOUND": "CCCCC(C#N)(Cn1cncn1)c1ccc(Cl)cc1 (stereo unspecified)",
    "CLASS ASSIGNMENT": "0 (no)"
  },
  {
    "COMPOUND": "CSC(=O)c1c(C(F)F)nc(C(F)(F)F)c(C(=O)SC)c1CC(C)C",
    "CLASS ASSIGNMENT": "1 (yes)"
  },
  {
    "COMPOUND": "COC(=O)N(C(=O)N1CO[C@@]2(C(=O)OC)Cc3cc(Cl)ccc3C2=N1)c1ccc(OC(F)(F)F)cc1",
    "CLASS ASSIGNMENT": "0 (no)"
  }
]

Ask: What outcome does the record of this test show for `C=CCOC(=O)C(C)(C)OC(=O)c1cc(-n2c(=O)cc(C(F)(F)F)n(C)c2=O)ccc1Cl` ?
Reply: 0 (no)

Ask: What outcome does the record of this test show for `CCOP(=S)(OCC)Oc1nc(Cl)n(C(C)C)n1` ?
Reply: 0 (no)

Ask: What outcome does the record of this test show for CC(C)C1(C)N=C(c2ncccc2C(=O)O)NC1=O (stereo unspecified) ?
Reply: 0 (no)

Ask: What outcome does the record of this test show for `COC(=O)NC(=S)Nc1ccccc1NC(=S)NC(=O)OC` ?
Reply: 0 (no)

Ask: What outcome does the record of this test show for `CNC(=O)N(C)c1nnc(C(C)(C)C)s1` ?
Reply: 0 (no)

Ask: What outcome does the record of this test show for `N#Cc1c(Cl)cccc1Cl` ?
Reply: 0 (no)

Ask: What outcome does the record of this test show for `CN/C(=N\[N+](=O)[O-])NCc1cnc(Cl)s1` ?
Reply: 0 (no)

Ask: What outcome does the record of this test show for `COP(=S)(OC)Oc1ccc([N+](=O)[O-])c(C)c1` ?
Reply: 0 (no)
